Where these numbers come from: patent US5674864A

target: enkephalinase (Rattus norvegicus)
Sequence (P07861 whole entry): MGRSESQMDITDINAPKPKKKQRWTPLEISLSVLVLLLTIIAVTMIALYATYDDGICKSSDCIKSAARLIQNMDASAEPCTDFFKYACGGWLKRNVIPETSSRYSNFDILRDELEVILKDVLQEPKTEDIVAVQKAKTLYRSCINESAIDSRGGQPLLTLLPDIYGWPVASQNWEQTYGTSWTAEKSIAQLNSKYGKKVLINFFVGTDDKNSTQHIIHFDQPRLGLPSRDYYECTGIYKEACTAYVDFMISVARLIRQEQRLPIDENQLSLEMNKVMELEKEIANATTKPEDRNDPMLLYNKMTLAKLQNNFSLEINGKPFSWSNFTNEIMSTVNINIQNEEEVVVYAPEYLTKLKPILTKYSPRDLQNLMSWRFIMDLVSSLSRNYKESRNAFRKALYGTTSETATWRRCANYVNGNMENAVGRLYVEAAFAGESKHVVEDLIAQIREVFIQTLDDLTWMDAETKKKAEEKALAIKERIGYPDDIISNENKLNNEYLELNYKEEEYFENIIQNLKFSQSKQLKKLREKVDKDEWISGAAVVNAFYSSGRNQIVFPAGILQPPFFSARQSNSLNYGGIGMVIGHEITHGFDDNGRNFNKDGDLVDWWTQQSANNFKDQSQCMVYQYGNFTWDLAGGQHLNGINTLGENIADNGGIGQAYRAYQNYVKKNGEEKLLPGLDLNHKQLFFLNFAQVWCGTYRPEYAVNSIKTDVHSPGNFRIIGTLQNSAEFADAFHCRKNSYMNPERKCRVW
measured property: IC50
Answer with the number, then the unit.

Qu. Recorded IC50 of O=C(Nc1ccccc1)NC(CS)Cc1ccccc1 (single isomer, unassigned; (+)) , please.
Ans. 70 nM
